# ASSAY SUMMARY: Solubility of Compound A fumarate at 25° C.
# Assay type: physicochemical
# ASSAY CONDITIONS: hydrochloric acid buffer pH 1.2, simulated gastric fluid, thermodynamic from solid; 25° C.; pH 1.2 buffer (hydrochloric acid)
Structures can show the parent of a compound that is named as a salt.
RESULT TYPE: solubility at 24 h

| MOLECULE | REPORTED MEASUREMENT |
| --- | --- |
| FC(F)OC1=CC(C(F)(F)F)=CN2C[C@@]3(CCC(F)(F)c4c3ccnc4Cl)N=C12 [Compound A fumarate] | > 2000 µg/mL |

###

# ASSAY SUMMARY: Solubility of Compound A fumarate at 25° C.
# Assay type: physicochemical
# ASSAY CONDITIONS: acetate buffer pH 4.7, aqueous buffer, thermodynamic from solid; 25° C.; pH 4.7 buffer (acetate)
# Method: Solubility of the fumarate in FaSSIF is 0.09 mg/mL and 0.21 mg/mL in FeSSIF. […] The maximum water uptake by DVS is less than 0.1% up to 95% RH at 25° C.
Where a name gives a salt, the structure may show the parent alone.
RESULT TYPE: solubility at 24 h

| MOLECULE | RESULT TYPE | REPORTED MEASUREMENT |
| --- | --- | --- |
| FC(F)OC1=CC(C(F)(F)F)=CN2C[C@@]3(CCC(F)(F)c4c3ccnc4Cl)N=C12 [Compound A fumarate] | solubility at 24 h | > 2000 µg/mL |
